# System: Renilla luciferase RNA
# Assay summary: Barcoded aptazyme variant library screen: un-cleaved Renilla luciferase RNA by barcode read counts, HEK293-T cells
# Type: cell-based
# Measurement context: un-cleaved Renilla luciferase RNA, HEK293-T cells cultured with 1 mM theophylline (ON) over without theophylline (OFF); barcode read counts, triplicate
Assay endpoint: Fold change in RNA expression between the ON state and the OFF state (fold)

{"Molecule": "RA119 (nucleic acid, expressed or natural sequence) DNA: GCGCGTCCTGGATTCGCGGAAACGCGTACATCCAGAGAATACCAGCATCGTCTTGATGCCCTTGGAAGTCTCTGACGAGTCCCAAATAGGACGAAACGCGC", "Unit info": "fold", "Experimental value": 1.5}
{"Molecule": "RA036 (nucleic acid, expressed or natural sequence) DNA: GCGCGTCCTGGATTCGCGGAAACGCGTACATCCAGCTGACGAGTCCCAAATAGGCGAGAATACCAGCATCGTCTTGATGCCCTTGGAAGTCTCGACGAAACGCGC", "Unit info": "fold", "Experimental value": 2.2}

These data points were gathered from patent US20260167959A1.
